# systemTested: T1, angiogenin (human (produced in the Human Secretome …, UniProt P03950 25-147))
# T1 construct: also called bANG
# T1 sequence (P03950 25-147 limits assumed): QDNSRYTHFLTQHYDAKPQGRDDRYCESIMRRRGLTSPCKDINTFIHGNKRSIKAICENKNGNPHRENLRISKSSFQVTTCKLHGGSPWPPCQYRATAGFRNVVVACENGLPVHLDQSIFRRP
# methodSummary: SPR Biacore T200, target on CM5 chip, ADAPT injected, 1:1 fit
measureName: pKd
Scale for pKd: -log10 of concentration given in mol/L; no unit attached.

| binder | pKd |
| --- | --- |
| LHEAKDWADYELWSYGVSDFYRALIWKAKTVEGVEALKLHILAALP (designed binder) [ADAPT variant ANG_13] | 10.55 |
| LYVAKDNADWELWQYGVSDFYRSLIWKAKTVEGVEALKLHILAALP (designed binder) [ADAPT variant ANG_16] | 8.29 |
| LYWAKDYADYELWQYGVSDFYRSLIWKAKTVEGVEALKLHILAALP (designed binder, also called ANG_2) [ADAPT variant ANG_02] | 7.85 |

Moving on to another binder below.
**Query** Quote pKd reported for LWAAKDDADWELWQYGVSDFYRALIWKAKTVEGVEALKLHILAALP (designed binder, also called ANG_6) [ADAPT variant ANG_06] please.
**Result** 8.31
